# Measured On: Phospholipase A2, membrane associated (Homo sapiens, UniProt P14555)
# Sequence (P14555 whole entry): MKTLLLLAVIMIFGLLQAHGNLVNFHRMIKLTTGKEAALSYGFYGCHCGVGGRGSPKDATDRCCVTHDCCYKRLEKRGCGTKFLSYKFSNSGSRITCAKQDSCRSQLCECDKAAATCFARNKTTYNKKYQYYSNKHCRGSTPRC
# Assay: Inhibition of human non-pancreatic sPLA2 using 1,2-dimyristoyl-sn-glycero-3-phosphocholine substrate after 5 mins by continuous fluorescence assay
# Condition Description: read-out: IC50
Quantity Name: IC50
Respond with a number, then the unit of measure.

Solved entries (count: 2):
CCCCOc1ccc(-c2cc(C(=O)OC)c3ccccc3n2)cc1: 44 µM
COC(=O)c1cc(-c2ccc(OC)cc2)nc2ccc(F)cc12: 6 µM

Would you mind telling me what IC50 value was observed for CCCOc1ccc(-c2cc(C(=O)OC)c3cc(OC)ccc3n2)cc1 ?
27 µM

Would you mind telling me what IC50 value was observed for COC(=O)c1cc(-c2ccc(OC)cc2)nc2ccc(Cl)cc12 ?
8.1 µM

Would you mind telling me what IC50 value was observed for COc1ccc2c(c1)c(CC(N)=O)c(C)n2Cc1ccccc1 ?
1 µM

Would you mind telling me what IC50 value was observed for COC(=O)c1cc(CCc2ccccc2)nc2ccc(F)cc12 ?
12 µM

Would you mind telling me what IC50 value was observed for COC(=O)c1c(Cc2ccccc2)c(C)nc2ccc(Cl)cc12 ?
2.8 µM

Would you mind telling me what IC50 value was observed for COC(=O)c1cc(-c2ccccc2)nc2ccc(OC)cc12 ?
2 µM

Would you mind telling me what IC50 value was observed for COC(=O)c1cc(CCc2ccccc2)nc2ccc(Cl)cc12 ?
1.8 µM

Would you mind telling me what IC50 value was observed for COC(=O)c1cc(-c2ccc(OC)cc2)nc2ccc(OC)cc12 ?
15 µM
